Tested on: LTB4
run description: Reverse passive Arthus pleurisy assay, inflammatory mediator release: LTB4
Assay type: in vivo, rat (male Lewis)
test settings: 25 mg/kg p.o., 3 hours before challenge
Procedure: The compounds of the invention are further tested in the reverse passive Arthus pleurisy assay to evaluate their effectiveness in inflammatory mediator release and/or the fluid and cellular phases of an inflammatory response. This assay is carried out as follows: […] Eicosanoids are quantitated by RIA according to the procedure specified by the RIA kit manufacturer (Advanced Magnetics, Cambridge, Mass.). […]
Recorded % Inhibition of LTB4 Synthesis values for a group of compounds are listed next.

{"compound": "CN(O)C(=O)Cc1ccc(-c2ccc(OCc3csc(-c4ccccc4)n3)cc2)cc1", "% Inhibition of LTB4 Synthesis": "32%"}
{"compound": "CN(O)C(=O)Cc1ccc(-c2ccc(OCc3nc4ccccc4s3)cc2)c(F)c1", "% Inhibition of LTB4 Synthesis": "7%"}
{"compound": "CC(c1ccc(-c2ccc(OCc3nc4ccccc4s3)cc2)cc1)N(O)C(N)=O (stereo not shown)", "% Inhibition of LTB4 Synthesis": "2%"}
{"compound": "CC(C(=O)N(C)O)c1ccc(-c2ccc(OCc3nc4ccccc4s3)cc2)cc1 (stereo not shown) [Example 16]", "% Inhibition of LTB4 Synthesis": "46%"}

----------
System: LTB4
run description: Reverse passive Arthus pleurisy assay, inflammatory mediator release: LTB4
Assay type: in vivo, rat (male Lewis)
test settings: 25 mg/kg p.o., 3 hours before challenge
Procedure: The compounds of the invention are further tested in the reverse passive Arthus pleurisy assay to evaluate their effectiveness in inflammatory mediator release and/or the fluid and cellular phases of an inflammatory response. This assay is carried out as follows: […] Eicosanoids are quantitated by RIA according to the procedure specified by the RIA kit manufacturer (Advanced Magnetics, Cambridge, Mass.). […]
Where a name gives a salt, the structure may show the parent alone.
property measured: % Inhibition of LTB4 Synthesis

{"molecule": "O=C(O)Cc1ccc(-c2ccc(OCc3ccc4ccccc4n3)cc2)c(F)c1", "recorded measurement": "34%"}
{"molecule": "CC(C(=O)N(C)O)c1ccc(-c2ccc(OCc3nc4ccccc4n3C)cc2)cc1 (stereo not shown) [Example 24, hydrochloride salt]", "recorded measurement": "56%"}
{"molecule": "O=C(O)CCc1nc(-c2ccc(OCc3ccc4ccccc4n3)cc2)c(-c2ccccc2)o1", "recorded measurement": "65%"}
{"molecule": "CN(O)C(=O)Cc1cccc(C(=O)c2ccc(OCc3nc4ccccc4s3)cc2)c1", "recorded measurement": "21%"}
{"molecule": "CC(C(=O)N(C)O)c1ccc(-c2ccc(OCc3csc(-c4ccccc4)n3)cc2)cc1 (stereo not shown)", "recorded measurement": "8%"}
{"molecule": "CC(C)N(O)C(=O)Cc1ccc(-c2ccc(OCc3csc(-c4ccccc4)n3)cc2)cc1", "recorded measurement": "19%"}
{"molecule": "CC(C(=O)N(C)O)c1ccc(-c2ccc(OCc3nc4ccccc4s3)cc2)cc1 (stereo not shown) [Example 17]", "recorded measurement": "37%"}
